System: HOP-62
procedureDetails: NCI tumour cell line growth inhibition, 48 h
Active and inactive are the calls of the source. Rule as the data show it: active = GI50 up to about 1.1 µM and inactive = higher.
Provide the reported GI50 of each item.

compound=CCOC(=O)Cn1c(C)nc2nn(Cc3ccccc3)cc2c1=O assayvalue="> 100 µM (inactive)"

Quick one: give me GI50 for each item below, same order please.
1. O=[N+]([O-])C1=Cc2c(O)ccc(O)c2C2OC=CC12 (stereo unspecified)
2. CCOc1cc2cnc3c4cc(OC)c(OC)cc4ccc3c2cc1OC
3. CC(C)N(C)C(=O)C12C3C4C1C1C2C3C41C#N (stereo unspecified)
4. Oc1ccc(-c2nc(-c3cccnc3)c(-c3ccc(F)cc3)[nH]2)cc1

**Result**
18.3 µM (inactive)
> 100 µM (inactive)
> 100 µM (inactive)
21.6 µM (inactive)

**Query** Which measured GI50 value corresponds to CC1=NC(=Cc2ccc(Cl)cc2)C(=O)N1n1c(-c2ccccc2)nc2ccccc2c1=O ?
**Result** 47.2 µM (inactive)

====

System: OVCAR-3
procedureDetails: NCI tumour cell line growth inhibition, 48 h
Active and inactive are the calls of the source. Rule as the data show it: active = GI50 up to about 1.1 µM and inactive = higher.
Provide the reported GI50 of each item.

Recorded GI50, per entry:
compound="CCC(CN(C)C)C(=O)c1ccco1 (stereo unspecified)" assayvalue="> 100 µM (inactive)"
compound=COc1cc(/C=C2/CCCc3ccccc3C2=O)cc(OC)c1OC assayvalue="19.2 µM (inactive)"
compound=COC(=O)c1ccc(/C=C2\Oc3cc(O)ccc3C2=O)cc1 assayvalue="53.3 µM (inactive)"
compound=Oc1ccc(-c2nc(-c3cccnc3)c(-c3ccc(F)cc3)[nH]2)cc1 assayvalue="16.7 µM (inactive)"
compound=CN1CCc2c([nH]c3ccccc23)C1 assayvalue="> 100 µM (inactive)"

Quick one: give me GI50 for each item below, same order please.
1. CC(C)=CCC/C(C)=C/CC/C(C)=C/CSc1ccc(Cl)cc1C(=O)O
2. CC12CCC3[C@@H](CC3(C)C)C(O)(CCC1=O)C2 (stereo partly specified)
3. COc1ccc(-c2cc(=O)c3c(OC)c(OC)c(OC)c(OC)c3o2)c(OC)c1
4. NS(=O)(=O)c1nnc(NSc2ccc([N+](=O)[O-])cc2)s1

**Result**
17 µM (inactive)
> 100 µM (inactive)
13.4 µM (inactive)
> 100 µM (inactive)

Quick one: give me GI50 for each item below, same order please.
1. Nc1ccc(Oc2ccc(C34CC5CC(C3)CC(c3ccc(Oc6ccc(N)cc6)cc3)(C5)C4)cc2)cc1
2. COc1ccc(C(=O)c2sc(N(C)C)nc2-c2ccccc2)cc1

**Result**
1. 7.66 µM (inactive)
2. 16.8 µM (inactive)

====

Provide the reported GI50 of each item.
Test system: SNB-75
procedureDetails: NCI tumour cell line growth inhibition, 48 h
Activity calls are given as the source filed them. No stated cut-off is given here; in the data, active = GI50 up to about 1.1 µM and inactive = higher.

Recorded GI50, per entry:
chemicalsmiles=O=C(c1ccccc1)c1cc(Cl)ccc1NCn1nnc2ccccc21 targetofassay=SNB-75 assayvalue="35.1 µM (inactive)"
chemicalsmiles=O=C(O)c1nccnc1C(=O)O targetofassay=SNB-75 assayvalue="> 100 µM (inactive)"
chemicalsmiles=O=S(O)CCCSSSCCCS(=O)O targetofassay=SNB-75 assayvalue="> 100 µM (inactive)"
chemicalsmiles=CCCCCNc1nonc1N targetofassay=SNB-75 assayvalue="> 100 µM (inactive)"
chemicalsmiles=O=C(OCCN=c1c2ccccc2ccc2ccccc12)c1ccc([N+](=O)[O-])cc1 targetofassay=SNB-75 assayvalue="> 100 µM (inactive)"
chemicalsmiles=CC1=N/C(=C\c2cccc([N+](=O)[O-])c2)C(=O)O1 targetofassay=SNB-75 assayvalue="15.1 µM (inactive)"
chemicalsmiles=CN(C)CCCn1c(-c2ccc(Br)cc2)cs/c1=N\c1ccccc1 targetofassay=SNB-75 assayvalue="15.8 µM (inactive)"
chemicalsmiles=CCc1nn(CN2CCOCC2)c(=S)n1/N=C/c1ccc(-c2ccc(Cl)cc2)o1 targetofassay=SNB-75 assayvalue="50.8 µM (inactive)"

Quick one: give me GI50 for each item below, same order please.
1. CCN(CC)CCN1c2ccccc2Sc2ccc3ccccc3c21
2. O=C1C(=Cc2ccccc2O)N=C(c2ccccc2)N1n1c(-c2ccccc2)nc2ccccc2c1=O
3. COc1ccc(N2C(=O)/C(=C/c3ccc(N(CCC#N)CCC#N)cc3C)N=C2/C=C\c2ccccc2)cc1

**Result**
7.06 µM (inactive)
23.4 µM (inactive)
> 100 µM (inactive)

====

Test system: UACC-62
procedureDetails: NCI tumour cell line growth inhibition, 48 h
The source made the active and inactive calls. Cut-off read from the data, not from the text of the source: active = GI50 up to about 1.1 µM and inactive = higher.
Outcomes you can answer with include only these: 1 (yes) (active), 0 (no) (inactive)

A selection of reference data follows.
molecule=OC[C@@H](O)[C@H](O)[C@@H](O)/C=N/Nc1ccc(Cl)nn1 classification="0 (no)"
molecule=O=c1c2cnccc2cc2c3ccccc3ccn12 classification="0 (no)"
molecule=O=C1CCN2C(=Nc3cccc4cccc2c34)N1 classification="0 (no)"
molecule=NNc1ncnc2cccc(Cl)c12 classification="0 (no)"
molecule=CCOc1cc2cnc3c4cc(OC)c(OC)cc4ccc3c2cc1OC classification="0 (no)"

**Query** Please share the test call associated with CSc1ncc2c(C#N)c3sc4ccccc4n3c(=O)c2n1 .
**Result** 0 (no)

**Query** Please share the test call associated with C[N+]1(C)CN(c2ccccc2)C2(CCN(CCCC(=O)c3cccs3)CC2)C1=O .
**Result** 0 (no)

**Query** Please share the test call associated with N=c1oc2ccccc2cc1C(=O)Nc1ccccn1 .
**Result** 0 (no)

**Query** Please share the test call associated with C[N+](C)(C)/C=N\c1cccc2c1CCCC2 .
**Result** 0 (no)

**Query** Please share the test call associated with Cc1c2n(c3ccccc13)CC1C2N(C)OC1(C)C (stereo not drawn) .
**Result** 0 (no)

**Query** Please share the test call associated with Clc1ccc(-c2cn3c(nc4ccccc43)c(-c3ccccc3)n2)cc1 .
**Result** 0 (no)

**Query** Please share the test call associated with CCOc1ccccc1NC(=O)C(=O)C(/C(=N/N)C(=O)OC)c1nc2ccc([N+](=O)[O-])cc2nc1O (stereo not drawn) .
**Result** 0 (no)

====

Tested on: MDA-MB-231
procedureDetails: NCI tumour cell line growth inhibition, 48 h
Calls of active or inactive are those of the source. Cut-off read from the data, not from the text of the source: active = GI50 up to about 1.1 µM and inactive = higher.
Outcomes you can answer with include only these: Y for active, N for inactive

compound=COc1nc2ncc([C@@H](O)[C@H](O)CO)nc2c(=O)n1C classification=N
compound="CCN1CC2=C(N=c3s/c(=C\\c4ccc(Cl)cc4)c(=O)n3C2c2ccc(Cl)cc2)/C(=C/c2ccc(Cl)cc2)C1 (stereo not given)" classification=N
compound=CCOC(=O)c1nc2cc(Cl)ccc2[nH]c1=O classification=N
compound=CC[C@@]1(O)C(=O)OCc2c1cc1n(c2=O)Cc2c-1nc1ccc(O)cc1c2CC[Si](C)(C)C classification=Y
compound="Cc1cn(C2C=CC(COP(=O)(OCC3=CC(=O)c4ccccc4C3=O)N(C)CCCCCl)O2)c(=O)[nH]c1=O (stereo not given)" classification=N

**Query** Please share the test call associated with c1ccc(-c2cc(-c3cccs3)c(-c3cccs3)s2)cc1 .
**Result** N

**Query** Please share the test call associated with CCCC(=O)Nc1cc(/C=C/C(=O)N2C[C@H]3C[C@@]34C2=CC(=O)c2[nH]cc(C)c24)n(C)c1 .
**Result** Y

**Query** Please share the test call associated with O=C1C(=Cc2ccccc2O)N=C(c2ccccc2)N1n1c(-c2ccccc2)nc2ccccc2c1=O .
**Result** N

**Query** Please share the test call associated with CC1=NC(=Cc2ccc(Cl)cc2)C(=O)N1n1c(-c2ccccc2)nc2ccccc2c1=O .
**Result** N

**Query** Please share the test call associated with CCOC(CI)O[C@@H]1C=C[C@H](OC(C)=O)C1 (stereo not given in full) .
**Result** N

====

Test system: SK-OV-3
procedureDetails: NCI tumour cell line growth inhibition, 48 h
Activity calls are given as the source filed them. No stated cut-off is given here; in the data, active = GI50 up to about 1.1 µM and inactive = higher.
Outcomes you can answer with include only these: yes (1) (active), no (0) (inactive)

A selection of reference data follows.
compound="Cc1ccc(S(=O)(=O)N/N=C2\\C3CC4CC(C3)C2C4)cc1 (stereo not drawn)" classification="no (0)"
compound="COC(=O)C1(Cc2ccccc2)Cc2ccccc2C1O (stereo not drawn)" classification="no (0)"
compound=Cc1ccc2nc(N/N=C/c3sccc3C)cc(C)c2c1 classification="no (0)"
compound=CCN(CC)CCN1c2ccccc2Sc2ccc3ccccc3c21 classification="no (0)"
compound=N#C/C(C(=S)NCc1ccccc1)=C(/N)N1CCCC1 classification="no (0)"

**Query** Please share the test call associated with COc1ccc(-c2cc(=O)c3c(OC)c(OC)c(OC)c(OC)c3o2)c(OC)c1 .
**Result** no (0)

**Query** Please share the test call associated with COc1ccc(NC(=S)c2ccc([N+](=O)[O-])o2)cc1 .
**Result** no (0)

**Query** Please share the test call associated with O=C1C(=Cc2ccccc2O)N=C(c2ccccc2)N1n1c(-c2ccccc2)nc2ccccc2c1=O .
**Result** no (0)

**Query** Please share the test call associated with CC(C)CC1c2[nH]c3ccccc3c2C[C@H]2C(=O)NC(COC(C)(C)C)C(=O)N12 (stereo partly drawn) .
**Result** no (0)

**Query** Please share the test call associated with Cc1ccccc1C(O)(c1nccn1C)c1nccn1C .
**Result** no (0)
